System: MALME-3M melanoma
experiment: NCI-60 one-dose screen, 48 h (100 = growth as untreated, 0 = no growth, -100 = all killed)
particulars: 10 µM unless noted
This is part of a sample that, as a whole, favours compounds with a hit. Of some 83,000 tested, about 20% had one in any assay.
Rule: growth under 30% gives criterion not met, otherwise criterion met.

compound="Cc1ccccc1NC(=O)NC(CC(N)=O)c1ccc2c(c1)nc(-c1cccc(Oc3ccc(C(C)(C)C)cc3)c1)n2CCCN1CCCCC1C (centres undefined)" label="criterion not met"
compound=c1cc[n+](Cc2ccnc3ccccc23)cc1 label="criterion met"
compound=CCCCCN(CCCCC)CCCNc1c2c(nc3ccc(Cl)cc13)CCCC2 label="criterion met"
compound=O=C(/C=C/c1cccc(O)c1)c1cccc(-n2cc(-c3ccccc3)[nH]c2=O)c1 label="criterion not met"
compound=O=C(/C=C(\Nc1ccccc1)c1ccccc1)c1cn(-c2ccc([N+](=O)[O-])cc2)nn1 label="criterion met"
compound=O=C(COc1cccc(/C=C2\Cc3ccccc3C2=O)c1)c1ccc(Cl)cc1 label="criterion met"
compound="CC(C)=CCNc1ncnc2c1ncn2C1OC(COP(=O)(O)O)C(O)C1O (centres undefined)" label="criterion met"
compound="O=CN1N=C(c2ccc(Nc3ccnc4cc(Cl)ccc34)cc2)CC1c1ccc(Cl)cc1 (centres undefined)" label="criterion met"
compound=COc1cc(/C=C/c2cc(/C=C/c3ccc(O)c(OC)c3)n(C(=O)Cc3ccccc3)n2)ccc1O label="criterion not met"

---

System: HOP-62 NSCLC
experiment: NCI-60 one-dose screen, 48 h
particulars: 10 µM unless noted
The panel holds about 83,000 compounds, 20% with a hit somewhere; the sample as a whole holds those more often. Activity calls are given as the source filed them. How the source made its calls: active means growth percent below 10; inactive means the rest.
Labels: active, inactive

compound=CC(C)CNc1nc(N=[N+]=[N-])nc(NCC(C)C)n1 label=inactive
compound=CCCCCc1c(C)[nH]c(/C=C2\N=C(c3ccc[nH]3)C=C2Oc2ccc(Cl)cc2)c1C label=active
compound=Cc1[nH]ccc2cc3nc4ccccc4c3cc12 label=inactive
compound=O=C(O)C1CCN(S(=O)(=O)c2ccc(-c3ccccc3)cc2)CC1 label=inactive
compound=O=C(COc1cccc(/C=C2\Oc3ccc4ccccc4c3C2=O)c1)c1ccc([N+](=O)[O-])cc1 label=inactive
compound="NC(=O)NS(=O)(=O)c1ccc(N2N=C(C(F)(F)F)CC2c2cc(C(F)(F)F)cc(C(F)(F)F)c2)cc1 (stereo not drawn)" label=inactive
compound="CC(C)CC1NC(=O)C(CCCN)NC(=O)C(C(C)C)NC(=O)C2CCCN2C(=O)C(Cc2ccccc2)NC(=O)C(CC(C)C)NC(=O)C(CCCN)NC(=O)C(C(C)C)NC(=O)C2CCCN2C(=O)C(Cc2ccccc2)NC1=O (stereo not drawn)" label=active
compound=O=C(COc1ccc(/C=C2\Oc3ccc4ccccc4c3C2=O)cc1)c1ccc(Cl)cc1 label=inactive

---

Tested on: A498 renal
experiment: NCI-60 one-dose screen, 48 h (100 = growth as untreated, 0 = no growth, -100 = all killed)
particulars: 10 µM unless noted
Compounds without any hit were thinned out: in the full panel of roughly 83,000, 20% have a hit.
property: growth (%)

compound="CC(NC(N)=S)c1ccccc1 (stereo unspecified)" result_number=98.1
compound=Cc1cc(C(=O)Nc2ccc3cc(CN4CCOCC4)ccc3n2)c(C)n1-c1ccccc1 result_number=79.8
compound=Nc1ccc(Oc2c(F)c(F)c(Oc3ccc(N)cc3)c(F)c2F)cc1 result_number=111
compound=O=C1NCCc2c1noc2-c1ccccc1 result_number=105
compound=O=C(/C=C/c1cccc(Nc2ccnc3cc(Cl)ccc23)c1)c1ccc(Cl)cc1 result_number=44.1
compound=COc1cnc2c(c1)C(=O)c1c-2n(CCCNC2=NCCS2)c(=O)c2cc(F)ccc12 result_number=-52.4
compound=O=C(Nc1nc2ccc(OC(F)(F)F)cc2s1)c1ccc(F)cc1 result_number=16.4
compound=COc1cc(Cl)cc(-c2nn(-c3cccc(NC(=O)c4cc(C(F)(F)F)cc(C(F)(F)F)c4)c3)cc2-c2ccncc2)c1 result_number=-1.74
compound=CC(=O)c1ccccc1NC(=O)C(C)(c1ccccc1)c1ccccc1 result_number=-17.9
compound=N#CC(C#N)C(C#N)C#N result_number=99
compound="NS(=O)(=O)c1cc(C2(O)NC(=O)c3ccccc32)ccc1Cl (stereo unspecified)" result_number=129

src = PubChem BioAssay (NCI)
